# Procedure Details: Human liver microsome
# Type: in vitro ADME
# Cond: pooled human liver microsomes, pH 7.4
Measured Quantity: log10 microsomal CLint at 1 μM (log10 of the value in µL/min/mg)
Record value = log10 of microsomal CLint at 1 μM given in µL/min/mg.

// solved cases for log10 microsomal CLint at 1 μM follow
CC(C)(NC(=O)c1nn(Cc2ccc(F)cc2)c2ccccc12)C(=O)N1CCC[C@H]1C(N)=O [Compound 14]
0.30
CC(C)(NC(=O)c1nn(CC2CCCC2)c2ccccc12)c1cccc(C(N)=O)c1 [Compound 48]
1.76
CC(C)(NC(=O)c1nn(CCCCC#N)c2ccccc12)c1cccc(C(N)=O)c1 [Compound 56]
0.85
CC(C)(NC(=O)c1nn(CCCCC(F)(F)F)c2ccccc12)c1cccc(C(N)=O)c1 [Compound 55]
0.78
CC(C)(NC(=O)c1nn(CCCCCF)c2ccccc12)c1cccc(C(N)=O)c1 [Compound 54]
1.00

input: Fill in: log10 microsomal CLint at 1 μM of CC(C)(NC(=O)c1nn(Cc2ccc(F)cc2)c2ccccc12)c1cccc(C(N)=O)c1 [Compound 24] is ___
output: 0.70

input: Fill in: log10 microsomal CLint at 1 μM of CC(F)(F)CCCn1nc(C(=O)NC(C)(C)c2cccc(C(N)=O)c2)c2ccccc21 [Compound 53] is ___
output: 0.90

----------
# Target Entity: UniProt:P21554
# Procedure Details: hCB1 Gαq16-coupled calcium mobilization assay in CHO-K1 cells
# Cond: hCB1 Ca EC50, CHO cells expressing hCB1 and Gαq16, calcium mobilization
Measured Quantity: pEC50
pEC50 is defined as minus the log10 of a concentration measured in mol/L.

C[C@H](NC(=O)c1nn(Cc2ccc(F)cc2)c2ccccc12)c1cccc(C(N)=O)c1
7.59
NC(=O)CN1CCC[C@H](NC(=O)c2nn(Cc3ccc(F)cc3)c3ccccc23)C1
7.44
NC(=O)N1CCC[C@H](CNC(=O)c2nn(Cc3ccc(F)cc3)c3ccccc23)C1
6.17
CC(F)(F)CCCn1nc(C(=O)NC(C)(C)c2cccc(C(N)=O)c2)c2ccccc21
6.33
CC(C)(NC(=O)c1nn(Cc2ccc(F)cc2F)c2ccccc12)c1cccc(C(N)=O)c1
6.82

input: Fill in: pEC50 of C[C@@H](NC(=O)c1nn(Cc2ccc(F)cc2)c2ccccc12)c1cccc(C(N)=O)c1 is ___
output: 6.36

input: Fill in: pEC50 of O=C(NC1CCCCC1)c1nn(Cc2ccc(F)cc2)c2ccccc12 is ___
output: 7.64

----------
# Target Entity: hCB2 receptor (Homo sapiens)
# Sequence (P34972 whole entry): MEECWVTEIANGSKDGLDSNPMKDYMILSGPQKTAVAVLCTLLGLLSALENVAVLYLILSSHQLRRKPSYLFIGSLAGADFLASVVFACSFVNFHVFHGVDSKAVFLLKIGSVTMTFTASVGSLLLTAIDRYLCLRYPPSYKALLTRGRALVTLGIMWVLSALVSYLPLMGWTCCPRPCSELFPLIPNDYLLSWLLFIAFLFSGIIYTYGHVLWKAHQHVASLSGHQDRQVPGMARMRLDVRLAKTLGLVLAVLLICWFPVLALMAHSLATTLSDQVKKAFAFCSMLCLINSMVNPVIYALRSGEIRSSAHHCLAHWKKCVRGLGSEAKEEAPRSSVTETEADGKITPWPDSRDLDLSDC
# Procedure Details: hCB2 Gαq16-coupled calcium mobilization assay in CHO-K1 cells
# Cond: hCB2 Ca EC50, CHO cells expressing hCB2 and Gαq16, calcium mobilization
Overview of reported log10 of EC50 across a group of compounds:
Record value = log10 of EC50 given in nM.

CC(C)(NC(=O)c1nn(Cc2ccc(F)cc2)c2ccccc12)C(=O)Nc1cccc(C(N)=O)c1 [Compound 12]
2.56
NC(=O)[C@H](Cc1ccccc1)NC(=O)c1nn(Cc2ccc(F)cc2)c2ccccc12 [Compound 8]
1.77
CCCCCn1nc(C(=O)NC(C)(C)c2cccc(C(N)=O)c2)c2ccccc21 [Compound 52]
2.24
CN(CC(N)=O)C(=O)C(C)(C)NC(=O)c1nn(Cc2ccc(F)cc2)c2ccccc12 [Compound 13]
1.87
COCCCn1nc(C(=O)NC(C)(C)c2cccc(C(N)=O)c2)c2ccccc21 [Compound 59]
3.41
O=C(NCc1ccc(F)cc1)c1nn(Cc2ccc(F)cc2)c2ccccc12 [Compound 18]
2.23

input: Fill in: log10 of EC50 of NC(=O)[C@@H]1CCCN1C(=O)C1(NC(=O)c2nn(Cc3ccc(F)cc3)c3ccccc23)CC1 [Compound 16] is ___
output: 2.28

input: Fill in: log10 of EC50 of CC(C)(CN1CCC[C@H]1C(N)=O)NC(=O)c1nn(Cc2ccc(F)cc2)c2ccccc12 [Compound 17] is ___
output: 2.00

input: Fill in: log10 of EC50 of NC(=O)CN1CCC[C@H](CNC(=O)c2nn(Cc3ccc(F)cc3)c3ccccc23)C1 [Compound 33] is ___
output: 2.23

input: Fill in: log10 of EC50 of NC(=O)N1CCC[C@@H](CNC(=O)c2nn(Cc3ccc(F)cc3)c3ccccc23)C1 [Compound 29] is ___
output: 2.25

input: Fill in: log10 of EC50 of CC(=O)Nc1cccc(C(C)(C)NC(=O)c2nn(Cc3ccc(F)cc3)c3ccccc23)c1 [Compound 25] is ___
output: 1.83

input: Fill in: log10 of EC50 of O=C(NC1CCCCC1)c1nn(Cc2ccc(F)cc2)c2ccccc12 [Compound 37] is ___
output: 1.15

----------
# Target Entity: hCB1 receptor (Homo sapiens)
pKi: −log10 of the molar value.
Quick rule for you: pKi at 8 or higher means label 1, lower means label 0.

CC(C)(NC(=O)c1nn(CC2CCC(F)(F)CC2)c2ccccc12)c1cccc(C(N)=O)c1
label 1
CC(F)(F)CCCn1nc(C(=O)NC(C)(C)c2cccc(C(N)=O)c2)c2ccccc21
label 0
CC(C)(NC(=O)c1nn(Cc2ccc(F)cc2)c2ccccc12)C(=O)N1CCC[C@H]1C(N)=O
label 1
CC(C)(NC(=O)c1nn(CC2CCOCC2)c2ccccc12)c1cccc(C(N)=O)c1
label 0

Now turn to the next molecule.
input: Reported pKi reaches at least 8 for CC(C)(NC(=O)c1nn(Cc2ccc(F)cc2)c2ccccc12)C1CCCN(C(N)=O)C1 (centres unmarked) ?
output: label 0

----------
# Target Entity: hCB1 receptor (Homo sapiens, UniProt P21554)
# Sequence (P21554 whole entry): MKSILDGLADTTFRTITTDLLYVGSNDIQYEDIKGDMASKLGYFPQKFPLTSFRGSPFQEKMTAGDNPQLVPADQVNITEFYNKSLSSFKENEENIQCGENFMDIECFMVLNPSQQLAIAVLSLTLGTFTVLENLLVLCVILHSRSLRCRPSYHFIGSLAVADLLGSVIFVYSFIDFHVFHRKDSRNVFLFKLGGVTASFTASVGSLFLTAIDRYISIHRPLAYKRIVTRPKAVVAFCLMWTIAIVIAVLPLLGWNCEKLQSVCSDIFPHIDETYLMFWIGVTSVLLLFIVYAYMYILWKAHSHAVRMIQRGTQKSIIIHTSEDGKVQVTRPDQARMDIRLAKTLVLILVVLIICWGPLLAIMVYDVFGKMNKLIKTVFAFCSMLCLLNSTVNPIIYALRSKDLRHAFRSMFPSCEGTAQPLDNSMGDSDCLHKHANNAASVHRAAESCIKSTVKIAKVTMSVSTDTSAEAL
# Procedure Details: hCB1 Gαq16-coupled calcium mobilization assay in CHO-K1 cells
# Cond: hCB1 Ca EC50, CHO cells expressing hCB1 and Gαq16, calcium mobilization
Overview of reported pEC50 across a group of compounds:
pEC50 is defined as minus the log10 of a concentration measured in mol/L.

input: Fill in: pEC50 of CC(C)(NC(=O)c1nn(CCCCC(F)(F)F)c2ccccc12)c1cccc(C(N)=O)c1 is ___
output: 6.81

----------
Overview of reported half-life at 1 μM across a group of compounds:
# Procedure Details: Human liver microsome
# Format: in vitro ADME
# Cond: pooled human liver microsomes, pH 7.4
The figure you give is taken to be in h; do not add the unit.

CC(C)(NC(=O)c1nn(CC2CCCC2)c2ccccc12)c1cccc(C(N)=O)c1 [Compound 48]
0.367

input: Fill in: half-life at 1 μM of CC(C)(NC(=O)c1nn(CCCCC#N)c2ccccc12)c1cccc(C(N)=O)c1 [Compound 56] is ___
output: 3

input: Fill in: half-life at 1 μM of CC(C)(NC(=O)c1nn(Cc2ccc(F)cc2)c2ccccc12)C1CCCN(C(N)=O)C1 (stereo not drawn) [Compound 31] is ___
output: 0.433

input: Fill in: half-life at 1 μM of CC(C)(NC(=O)c1nn(CCCCC(F)(F)F)c2ccccc12)c1cccc(C(N)=O)c1 [Compound 55] is ___
output: 1.7

----------
# Target Entity: hCB1 receptor (Homo sapiens, UniProt P21554)
# Procedure Details: hCB1 Gαq16-coupled calcium mobilization assay in CHO-K1 cells
# Cond: hCB1 Ca EC50, CHO cells expressing hCB1 and Gαq16, calcium mobilization
Overview of reported EC50 across a group of molecules:
The figure you give is taken to be in µM; do not add the unit.

// solved cases for EC50 follow
CCCCCn1nc(C(=O)NC(C)(C)c2cccc(C(N)=O)c2)c2ccccc21
0.202
CC(C)(NC(=O)c1nn(Cc2ccc(F)cc2)c2ccccc12)C1CCN(C(N)=O)CC1
2.37
CC(C)(NC(=O)c1nn(Cc2ccc(F)cc2)c2ccccc12)C1CCCN(CC(N)=O)C1 (centres unmarked)
0.369

input: Fill in: EC50 of CNC(=O)C(C)(C)NC(=O)c1nn(Cc2ccc(F)cc2)c2ccccc12 is ___
output: 0.182

----------
Overview of reported pEC50 across a group of molecules:
# Target Entity: UniProtKB P34972
# Procedure Details: hCB2 Gαq16-coupled calcium mobilization assay in CHO-K1 cells
# Cond: hCB2 Ca EC50, CHO cells expressing hCB2 and Gαq16, calcium mobilization
pEC50 is defined as minus the log10 of a concentration measured in mol/L.

CC(C)(NC(=O)c1nn(CC2CCCC2)c2ccccc12)c1cccc(C(N)=O)c1
6.21

input: Fill in: pEC50 of NC(=O)c1ccc(CNC(=O)c2nn(Cc3ccc(F)cc3)c3ccccc23)cc1 is ___
output: 5.86

----------
# Procedure Details: Human liver microsome
# Assay type: in vitro ADME
# Cond: pooled human liver microsomes, pH 7.4
Overview of reported microsomal CLint at 1 μM across a group of compounds:
The figure you give is taken to be in µL/min/mg; do not add the unit.

CC(C)(NC(=O)c1nn(CC2CCOCC2)c2ccccc12)c1cccc(C(N)=O)c1 [Compound 51]
3.3

Consider now this further compound.
input: Fill in: microsomal CLint at 1 μM of CCCCCn1nc(C(=O)NC(C)(C)c2cccc(C(N)=O)c2)c2ccccc21 [Compound 52] is ___
output: 19
